Just for reference, patent US8802597B2 is where these values come from.

Tested on: giant foxtail (Setaria faberi)
experiment description: Test A pre/postemergence
Format: in vivo
protocol conditions: Setaria faberi, pre-emergence, 240 h, Preemergence, 500 g ai/ha; 0 to 100 scale where 0 is no effect and 100 is complete control; approximately ten days; read-out: Plant response rating, Foxtail, Giant
Hi there, I'd appreciate the recorded pest or weed control at 500 g/ha for every entry that follows.
One number for each entry, in %.

NC(=O)c1nc(C2CC2)nc(N)c1Cl
0

Count: 4. Required value per item: pest or weed control at 500 g/ha.
1. CCOC(=O)c1nc(C(C)C)nc(N)c1Cl
2. COC(=O)c1nc(-c2ccc(Cl)cc2)nc(N)c1Cl
3. CCOC(=O)c1nc(-c2ccc3c(c2)OCO3)nc(N)c1Cl
4. Nc1nc(C2CC2)nc(C(=O)[O-])c1Cl.[Na+] [Compound 77, monosodium salt]

1. 0
2. 10
3. 40
4. 95

====

Can you tell me Corn plant response rating for the items I'm about to list?
Test system: corn (Zea mays)
experiment description: Test C pre/postemergence
Type: in vivo
protocol conditions: Postemergence, 125 g ai/ha; scale 0 to 100 (0 no effect, 100 complete control)
Description: […]
One number for each entry.

CCOC(=O)c1nc(-c2ccc(Cl)cc2)nc(N)c1Br [Compound 37]
10
CCCCOC(=O)c1nc(C2CC2)nc(N)c1Cl [Compound 76]
70
CCOC(=O)C(OC(C)=O)c1nc(C2CC2)nc(N)c1Br (stereo not shown) [Compound 47]
0
CC(C)COC(=O)c1nc(C2CC2)nc(N)c1Br [Compound 17]
0

Each compound below has a reported value. Please supply its Corn plant response rating.
1. Nc1nc(C2CC2)nc(C=NO)c1Br [Compound 27]
2. Nc1nc(-c2ccc(Br)cc2)nc(C(=O)O)c1Br [Compound 136]

0
75

GET /values?readout=Corn plant response rating&item= COCc1nc(C2CC2)nc(N)c1Br [Compound 11] 0

====

Give Sedge, Umbrella plant response rating for every item shown.
Test system: smallflower umbrella sedge (Cyperus difformis)
experiment description: Test E flooded paddy water application
Format: in vivo
protocol conditions: 125 g ai/ha; Flood; 21 days; scale 0 to 100 (0 no effect, 100 complete control)
Give bare numbers.

Examples with answers:
CCOC(=O)c1nc(-c2ccc(OC)cc2)nc(N)c1Cl [Compound 98]
60
CCOC(=O)c1nc(-c2ccc(C)c(C)c2)nc(N)c1Cl [Compound 71]
30
Cc1ccc(-c2nc(N)c(Cl)c(C(=O)O)n2)cc1 [Compound 91]
100

Batch request: Sedge, Umbrella plant response rating per item, same order as input.
1. CCOC(=O)c1nc(-c2ccc(Cl)cc2F)nc(N)c1Br [Compound 69]
2. CCOC(=O)c1nc(-c2ccc(C)cc2)nc(N)c1Cl [Compound 62]

1: 90; 2: 95

====

Tested on: cocklebur (Xanthium strumarium)
experiment description: Test B pre/postemergence
Format: in vivo
protocol conditions: Postemergence, 125 g ai/ha; scale 0 to 100 (0 no effect, 100 complete control)
experimental readout: Cocklebur plant response rating
Numbers only.

A selection of reference data follows.
CCOC(=O)C(OC(C)=O)c1nc(C2CC2)nc(N)c1Br (stereo not shown)
90
CC=NNc1nc(C2CC2)nc(C(=O)OC)c1Br
30
COC(=O)c1nc(C2CC2C)nc(N)c1Br (stereo not shown)
90

Below are some compounds; for each one, tell me its Cocklebur plant response rating.
1. COC(=O)c1nc(-c2ccc(Cl)cc2)nc(N)c1Br
2. COCc1nc(C2CC2)nc(N)c1Br
3. COC(=O)c1nc(C2CC2)nc(N=CN(C)C)c1Br
4. COC(=O)Cc1nc(C2CC2)nc(N)c1Br
5. CCOC(=O)c1nc(C2CC2)nc(N2CCCC2)c1Br
6. CC(=O)NN=Cc1nc(C2CC2)nc(N)c1Br

100
80
90
10
0
80

Take each entry in turn and give its Cocklebur plant response rating.
1. CCOC(=O)c1nc(C2CC2)nc(NOCC(=O)O)c1Br
2. CCOC(=O)c1nc(C2CC2)nc(NCCOC)c1Br
3. CCOC(=O)Cc1nc(C2CC2)nc(N)c1Br
4. CCCOC(=O)c1nc(C2CC2)nc(N)c1Cl
5. COC(=O)CNc1nc(C2CC2)nc(C(=O)OC)c1Br

1. 40
2. 30
3. 40
4. 100
5. 60

Hi there! I need Cocklebur plant response rating for each item below, if you can.
1. COC(=O)c1nc(-c2ccc(F)cc2)nc(N)c1Br
2. Nc1nc(-c2ccc(Cl)cc2)nc(C(=O)O)c1Br

80
100
